The reported measurements were obtained from paper PMC7594119.

Target: CDK6 (Homo sapiens)
Sequence (Q00534 whole entry): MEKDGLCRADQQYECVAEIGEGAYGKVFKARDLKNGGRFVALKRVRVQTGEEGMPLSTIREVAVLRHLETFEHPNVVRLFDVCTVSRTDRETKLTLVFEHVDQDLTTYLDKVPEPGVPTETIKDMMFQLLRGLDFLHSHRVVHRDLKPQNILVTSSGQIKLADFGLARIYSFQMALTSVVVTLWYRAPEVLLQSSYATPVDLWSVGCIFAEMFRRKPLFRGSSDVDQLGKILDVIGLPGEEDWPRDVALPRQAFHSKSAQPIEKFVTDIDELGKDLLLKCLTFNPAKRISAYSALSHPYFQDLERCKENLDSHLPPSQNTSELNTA
Assay: Fluorescence quenching binding studies with CDK6
Settings: K (binding constant, modified Stern–Volmer), 15 °C
MEASURED METRIC: pKd
Interpret pKd as the negative base-10 log of the concentration measured in mol/L.

Which measured pKd value corresponds to O=c1c(O)c(-c2ccc(O)c(O)c2)oc2cc(O)cc(O)c12 ?
7.11

----------
Molecular target: CDK6 (Homo sapiens)
Assay: Fluorescence quenching binding studies with CDK6
Conditions: K (binding constant, modified Stern–Volmer), 30 °C
MEASURED METRIC: Kd

Which measured Kd value corresponds to O=c1c(O)c(-c2ccc(O)c(O)c2)oc2cc(O)cc(O)c12 ?
143 nM

----------
Molecular target: CDK6 (Homo sapiens)
Assay: Fluorescence quenching binding studies with CDK6
Settings: K (binding constant, modified Stern–Volmer), 25 °C
MEASURED METRIC: Kd (µM)
# output: bare number, implied unit µM

Which measured Kd value corresponds to O=c1c(O)c(-c2ccc(O)c(O)c2)oc2cc(O)cc(O)c12 ?
0.104

----------
MEASURED METRIC: IC50 (µM)
# output: bare number, implied unit µM

For the record O=c1c(O)c(-c2ccc(O)c(O)c2)oc2cc(O)cc(O)c12 , what value of IC50 is listed for UniProtKB Q00534?
5.89
